Where do the numbers come from? From ChEMBL document CHEMBL1201862.

tested on: A549; experiment: NCI tumour cell line growth inhibition, 48 h
Calls of active or inactive are those of the source. Rule as the data show it: active = GI50 up to about 1.1 µM and inactive = higher.
Returns: one label drawn from 1 for active, 0 for inactive

Solved entries:
• CCOc1ccc2nc(NC(=O)C(=O)C(C(=O)c3ccccc3-c3ccccc3)C3OC(=O)c4ccccc43)sc2c1 (configuration not stated) = 0
• Nc1nc(Cl)c(/C=N\O)c(NCC2(CO)CCC2)n1 = 0

Look up the recorded call for Cc1cc(C)c(C2[C@H]3C(=O)N(c4ccc(Cc5ccc(N6C(=O)[C@@H]7ON(c8ccccc8)C(c8c(C)cc(C)cc8C)[C@@H]7C6=O)cc5)cc4)C(=O)[C@H]3ON2c2ccccc2)c(C)c1 (some centres not stated) in this test.
0

Look up the recorded call for Cc1c(C)n(-c2ccccc2)c2nc([S+](C)[O-])nc([S+](C)[O-])c12 (configuration not stated) in this test.
0

Look up the recorded call for `COc1ccc(-c2cc(-c3ccc(O)cc3O)c(C#N)c(=O)[nH]2)cc1` in this test.
0

Look up the recorded call for CC(C)(C)OC(=O)NCC(=O)NC1CC=CCC1NC(=O)CNC(=O)OC(C)(C)C (configuration not stated) in this test.
0

Look up the recorded call for `O=c1ccn(Cc2ccccc2CCl)c(=O)[nH]1` in this test.
0

Look up the recorded call for `O/N=N/c1ccc([SH2]c2ccc3ccccc3c2)cn1` in this test.
0

Look up the recorded call for `CCN(CC)CCNc1ccc2nnn3c4ccc(OC(C)=O)cc4c(=O)c1c23` in this test.
0

Look up the recorded call for `CNCCN[C@@H]1c2cc3c(cc2[C@@H](c2cc(OC)c(O)c(OC)c2)[C@H]2C(=O)OC[C@@H]21)OCO3` in this test.
1

Look up the recorded call for `CNC(=S)N/N=C/c1ccc([N+](=O)[O-])s1` in this test.
0

Look up the recorded call for `COc1ccc(Cn2nc(OCc3ccccn3)c3cc([N+](=O)[O-])ccc32)cc1` in this test.
0

Look up the recorded call for CC(C)(C)C1=C(Br)C(C(C)(C)C)OP1(=O)O (configuration not stated) in this test.
0

Look up the recorded call for `O=C(/C=C/c1cccc(Oc2ccccc2)c1)NCc1ccc(C(=O)NCCc2ccccc2)cc1` in this test.
0

Look up the recorded call for `O=C1NNC(=O)c2ccccc2SSc2ccccc2C(=O)NNC(=O)c2ccccc2SSc2ccccc21` in this test.
0

* * *

test system: MOLT-4; experiment: NCI tumour cell line growth inhibition, 48 h
The source made the active and inactive calls. Rule as the data show it: active = GI50 up to about 1.1 µM and inactive = higher.
Returns: one label drawn from active, inactive

Solved entries:
- O=C(NCCCN1CCN(CCCNC(=O)Nc2cc(Cl)ccc2Cl)CC1)Nc1cc(Cl)ccc1Cl: inactive
- CCOC(=O)/C(=C\NC[C@@H](C)O)c1nc2ccccc2[nH]1: active
- COc1ccc(/C=C/C=C2C(=O)NC(=S)NC2=O)cc1: inactive
- O=C1CCCCCCCCCCC1CN1CCOCC1 (stereo not given): inactive
- CNC(=S)N/N=C/c1ccc([N+](=O)[O-])s1: inactive
- O=C1c2ccccc2C(=O)c2c1cc(S(=O)(=O)O)c(O)c2O [Alizarin Red S]: inactive
- CCCCCc1c(CCCC)c(O)nc2nc(NC(=O)CCCC)ccc12: inactive
- Cn1c(Nc2ccccc2)c(/C=N\c2ccccc2)c(=O)n(C)c1=O: inactive

Look up the recorded call for `CNc1ncc(-c2nnnn2-c2ccccc2)c(CN(C)C)n1` in this test.
inactive

Look up the recorded call for Cc1cccc(C)c1NC(=O)C(=O)C(C(=O)c1ccccc1-c1ccccc1)C1OC(=O)c2ccccc21 (stereo not given) in this test.
inactive

Look up the recorded call for N[C@H]1CCCC[C@@H]1N1C(=O)c2ccccc2C1(O)c1ccc(Cl)cc1 (stereo not given in full) in this test.
inactive

Look up the recorded call for CCN(CC)CCCNC(=O)C1COc2cc(-c3cc(=O)c4ccccc4o3)ccc2O1 (stereo not given) in this test.
inactive

Look up the recorded call for `N#C/C(=C\c1ccc(F)cc1)c1nc(-c2cc3ccccc3oc2=O)cs1` in this test.
inactive

Look up the recorded call for `COc1cc2c(cc1OCCCCCOc1cc3c(cc1OC)C(=O)N1CCC[C@H]1CN3)N=C[C@@H]1CCCN1C2=O` in this test.
inactive

Look up the recorded call for `CCCCCC1=C/C(=C\c2[nH]c(-c3ccc[nH]3)cc2OC)N=C1C` in this test.
active

Look up the recorded call for C=C1C2Oc3ccccc3C1N(c1ccccc1)O2 (stereo not given) in this test.
inactive

Look up the recorded call for `COc1ccc(-c2cc(-c3ccc(Nc4ccnc5cc(Cl)ccc45)cc3)[nH]c(=O)c2C#N)cc1` in this test.
inactive

Look up the recorded call for `CC(=O)CSc1c(-c2ccccc2)c(=O)n(-c2ccccc2)c(=S)n1-c1ccccc1` in this test.
inactive

Look up the recorded call for `CO/N=C\c1cc(O)c(O)c(/C=N/OC)c1` in this test.
inactive
